target: mTOR (Homo sapiens)
pIC50: −log10 of the molar value.
Assay readout: pIC50

// pIC50 value for `COc1ccc2[nH]c(-c3nn(C(C)C)c4ncnc(N)c34)cc2c1` : < 5.00
